- Test system: SN12C renal
- Experimental protocol: NCI tumour cell line growth inhibition, 48 h
Value kind: TGI

// sample "Oc1cnc2c(O)cccc2c1" , its TGI was > 100 µM

Reported TGI ( O=C(O)C(O)C(O)C(O)C(O)C(=O)O (stereo not drawn) ) = > 100 µM

Entry "CCCCNC(=NCc1ccccc1)NC#N" — recorded TGI = > 100 µM

Looking up "CCOC(=O)c1c(NC(=O)c2ccccc2)sc2c3c(ccc12)OCN(C)C3" , I found its TGI recorded as 3.22 µM

The compound "O=S(=O)(O)c1ccc2c(N=Nc3ccc(N=Nc4ccccc4)cc3)c(O)c(S(=O)(=O)O)cc2c1" showed TGI equal to > 100 µM

TGI recorded for this compound, "OCc1ccc(N2CCc3cc(F)ccc3C2)cc1Cl" , is 23.2 µM

Entry "CCN(CC)c1ccc2cc(C(=O)NCc3ccccc3)c(=N)oc2c1" ; TGI = > 100 µM

// TGI value for "C[N+]12CCN(c3ccccc31)c1ccccc12" : > 10 µM

Consider CC(C)CC(NP(=O)(O)OC1OC(C)C(O)C(O)C1O)C(=O)NC(Cc1c[nH]c2ccccc12)C(=O)O (stereo not drawn) . Its measured TGI is > 100 µM

// "Cc1cc(S(=O)(=O)NC2=NCCN2Cc2ccccc2)c(S)cc1Cl" : TGI value = > 100 µM

get_value(item= COc1cc(COC(=O)N2CC=CC2C(=O)O)c([N+](=O)[O-])cc1OC (stereo not drawn) , readout=TGI) returns > 100 µM

For reference, reported TGI for "Cc1nc(-n2nc(-c3ccccc3)cc2-c2ccccc2)sc1C(=O)/C=C/c1ccc(Cl)c(Cl)c1" stands at 44.3 µM

Sure, the documented TGI for "Cc1ccc(-c2nc(N3CCNCC3)c3oc(-c4ccccc4)nc3n2)cc1" is 3.3 µM

Notebook: "Cc1cc(=O)n(-c2c(C)cccc2Cl)c(/C=C(\O)c2ccncc2)n1" , TGI read as > 100 µM

Measured TGI, COc1ccccc1/C=C/C1=C(C)CCC(c2ccccc2OC)C1C (stereo not drawn) : > 100 µM

Entry "Cc1oc(N)c(S(=O)(=O)c2cc3ccccc3n(O)c2=N)c1C" — recorded TGI = > 100 µM

# compound COC(=O)C1(C)CC2C(C)(CCC3(C)C4=CC=C5C(=CC(=O)C(O)=C5C)C4(C)CCC23C)CC1O (stereo not drawn) ; its TGI = 3.33 µM

# TGI of "c1ccc(-c2n(Cc3ccc4ccccc4c3)cc[n+]2Cc2ccc3ccccc3c2)cc1" = 2.64 µM

GET /value?item= CCCCCCCCCC(CCCC(O)CC(=O)O)OC1OC(COC2OC(C)C(OC(C)=O)C(O)C2O)C(O)C(O)C1OC1OC(CO)C(O)C(O)C1OC1OC(C)C(OC(=O)CC(C)C)C(O)C1O (stereo not drawn) &field=TGI returns > 35 µM

Recorded TGI (compound COc1cc(C2c3cc4c(cc3OC(NCCc3ccccc3)C2C)OCO4)cc(OC)c1OC (stereo not drawn) ): > 65.3 µM

Value of measured TGI for the entry CCOC(=O)[C@@H]1ON2O[C@H](OC3CCCCC3c3ccccc3)C[C@H]3OC(=O)[C@@H]1C32 (stereo partly drawn) : > 100 µM

Note to self: TGI recorded for COc1cc(C2c3cc4c(cc3[C@@H](Nc3ccc(Oc5ccccc5)cc3)C3COC(=O)[C@H]23)OCO4)cc(OC)c1O (stereo partly drawn) was > 25.5 µM

For record "Cc1c(-c2ccc(O)cc2)oc(=O)c2ccc(O)cc12" the listed TGI is > 100 µM

Reported TGI ( "N#Cc1ccccc1C#C/C=C\C#Cc1ccccc1N" ) = 12.5 µM

Measured TGI, "O=C1c2ccccc2C(=O)c2c1ccc1c(=O)n(-c3ccccc3C(F)(F)F)nnc21" : 28.9 µM

Value of measured TGI for the entry "C/C(=N/O)c1ccc2c(c1)/C(=N/O)c1ccccc1-2" : 44.5 µM

// sample COC1OC(CBr)C(OC(=O)c2ccccc2)C(OS(=O)(=O)c2ccc(C)cc2)C1Br (stereo not drawn) , its TGI was > 100 µM

# TGI (compound: CC(C)N(C(=O)C12C3C4C1C1C2C3C41I)C(C)C (stereo not drawn) ) is > 100 µM

Cited source: PubChem BioAssay (NCI)
